Provide the recorded IC50 for the entries that follow.
# targetOrTestSystem: BRD4-BD12 (1-477) (Homo sapiens (Human), UniProt O60885)
# assayInfo: Alphascreen binding assay BRD4-BD12
# studyConditions: BRD4(1 2) H4; read-out: Biochemical activity (IC50 μM) BRD4(1 2) H4

Record summary for COC(=O)Cc1ccc(-c2cn(C(c3ccccc3)c3ccccn3)c3cc(-c4c(C)noc4C)cnc23)cc1 (centres unmarked) : reported IC50 = < 1 µM

Record summary for COC(=O)Cc1ccc(-c2cn(CC3CCCCC3)c3cc(-c4c(C)noc4C)cnc23)cc1 : reported IC50 = < 1 µM

Record summary for COC(=O)c1ccc(-c2cn(Cc3ncccc3F)c3cc(-c4c(C)noc4C)cnc23)cc1 : reported IC50 = < 1 µM

Record summary for COc1ccc(-c2cn(CC3(F)CCCCC3)c3cc(-c4c(C)noc4C)cnc23)cn1 : reported IC50 = < 1 µM

Record summary for Cc1nnn(C)c1-c1cnc2ccn(CC3CCC(F)(F)CC3)c2c1 : reported IC50 = 10 to 200 µM

Record summary for Cc1noc(C)c1-c1cnc2c(-c3cnn(CC(F)(F)F)c3)cn(CC3(F)CCC(F)(F)CC3)c2c1 : reported IC50 = 1 to 10 µM

Record summary for COC(=O)C1(c2ccc(-c3cn(Cc4ccccn4)c4cc(-c5c(C)noc5C)cnc34)cc2)CC1 : reported IC50 = < 1 µM

Record summary for Cc1ccc(-c2cn([C@@H](C)c3ccccn3)c3cc(-c4c(C)noc4C)cnc23)cc1 : reported IC50 = < 1 µM
